These measurements were taken from paper PMC13494018.

- Test target: CD276, Q5ZPR3
- Sequence (Q5ZPR3 whole entry): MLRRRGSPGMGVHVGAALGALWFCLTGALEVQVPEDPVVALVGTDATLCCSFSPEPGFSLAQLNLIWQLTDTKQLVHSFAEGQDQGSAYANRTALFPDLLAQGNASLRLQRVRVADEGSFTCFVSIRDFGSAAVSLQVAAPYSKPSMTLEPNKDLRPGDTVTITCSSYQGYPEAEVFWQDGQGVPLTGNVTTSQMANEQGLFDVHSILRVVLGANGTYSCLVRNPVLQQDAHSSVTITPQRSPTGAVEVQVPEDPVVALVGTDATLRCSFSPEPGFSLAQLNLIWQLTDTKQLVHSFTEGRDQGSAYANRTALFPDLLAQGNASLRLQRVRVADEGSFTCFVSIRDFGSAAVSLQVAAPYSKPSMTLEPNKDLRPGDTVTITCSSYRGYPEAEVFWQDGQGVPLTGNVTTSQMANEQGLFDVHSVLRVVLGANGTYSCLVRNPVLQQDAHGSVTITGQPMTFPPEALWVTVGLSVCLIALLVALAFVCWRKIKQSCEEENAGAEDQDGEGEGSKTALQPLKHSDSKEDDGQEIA
Give your call using only these classes: active, inactive

Solved cases (4 shown):
design_618_d4ffd631-0ea2-432e-ba0f-bd3d6297b2a0_729_dldesign_0_cycle1_af2pred (protein) AKEEVVEQAKQVAEAALALAKQVSPEWEKKAKEALELVEKAKEGNLEEAQKVAGEVMRIAAEVLAAYTAKQA; inactive
design_486_d4f32670-1303-4d79-8413-1b14cb3eff50_1519_dldesign_0_cycle1_af2pred (protein) DEVAKLVDETAAAARAAVAAAARTAAAGTPEQSAALSSLMVATLQAVGDAYRALTDPAEAKAAAEKARALAEELAARTAEIQA; active
design_610_f34cc193-997c-4684-af32-2a8002718429_112_dldesign_0_cycle1_af2pred (protein) MEEVKEEVIKVIEEAAAKAKKAIEADPSTAWAHASAAYATASKAIIANAPKLSPEEMTEVGEVFLKNMKELTEHAKAVAAA; inactive
design_486_d4f32670-1303-4d79-8413-1b14cb3eff50_1495_dldesign_0_cycle1_af2pred (protein) AAALAAAEAKAKAYIEKVKALDPELGKKTAEAVKKGVKSTPETAAALGNEVTAAAPEEAKPYVAAAIAQAILANALS; inactive

// next entry
Request: Given design_615_ab801fab-270b-4f6a-b2b5-83c165df418c_1773_dldesign_0_cycle1_af2pred (protein) SETAEEARRAVERLKEAAKKLAKAGTPEHAGYAEGLVTTTTALVERLLAAGREEEALRAARRALERAERLLKKALA , state the outcome it received in this test.
Result: inactive
